The molecules listed here are annotated with their Urinary excretions (%) Total (0-6 hr.).
- experiment: Urinary excretions of β-lactam antibiotics after rectal suppository (rabbit)
- Type: in vivo
- condition set: FK-749 125 mg (potency), Compound (I) 5%, Witepsol H-15
readout name: Urinary excretions (%) Total (0-6 hr.)

[[record]]
molecule = "CCCCOc1ccc(C(=O)O)cc1"
readout_name = "Urinary excretions (%) Total (0-6 hr.)"
display_unit = "%"
measured_number = 63.8

[[record]]
molecule = "CCCCCCCCNC(=O)c1ccccc1C(=O)O [Compound 14-Na, 2-Carboxy-N--(n-octyl)benzamide]"
readout_name = "Urinary excretions (%) Total (0-6 hr.)"
display_unit = "%"
measured_number = 62.0

[[record]]
molecule = "CCCCCCCCCC(=O)N[C@H](C(=O)O)C(C)C"
readout_name = "Urinary excretions (%) Total (0-6 hr.)"
display_unit = "%"
measured_number = 53.1

[[record]]
molecule = "CCCCCCCCCCNC(=O)CCC(=O)O"
readout_name = "Urinary excretions (%) Total (0-6 hr.)"
display_unit = "%"
measured_number = 60.1

[[record]]
molecule = "CCCCCCCCCCNC(=O)/C=C\\C(=O)O"
readout_name = "Urinary excretions (%) Total (0-6 hr.)"
display_unit = "%"
measured_number = 59.2


====

- experiment: Urinary excretions of β-lactam antibiotics after rectal suppository (rabbit)
- Assay type: in vivo
- condition set: FK-749 125 mg (potency), Compound (I) 5%, Witepsol H-15
readout name: Urinary excretions (%) 0-2 hr.

[[record]]
compound = "CCCCOc1ccc(C(=O)O)cc1"
display_unit = "%"
measured_number = 41.6

[[record]]
compound = "CCCCCCCCCCNC(=O)/C=C\\C(=O)O"
display_unit = "%"
measured_number = 39.1

[[record]]
compound = "CCCCCCCCCCNC(=O)CCC(=O)O"
display_unit = "%"
measured_number = 40.1

[[record]]
compound = "CCCCCCCCNC(=O)c1ccccc1C(=O)O [Compound 14-Na, 2-Carboxy-N--(n-octyl)benzamide]"
display_unit = "%"
measured_number = 41.2

[[record]]
compound = "CCCCCCCCCC(=O)N[C@H](C(=O)O)C(C)C"
display_unit = "%"
measured_number = 45.0


====

- experiment: Urinary excretions of AB-PC after administration of AB-PC rectal suppository (human)
- Type: in vivo
- condition set: AB-PC 125 mg (potency), Compound (I) 10%, Witepsol H-15, Table 3
readout name: Urinary excretions (%) Total (0-6 hr.)

[[record]]
compound = "CCCCCCCC(=O)N[C@@H](Cc1ccccc1)C(=O)O [Compound 23-Na, N--Capryloyl-L-phenylalanine]"
readout_name = "Urinary excretions (%) Total (0-6 hr.)"
display_unit = "%"
measured_number = 28.2

[[record]]
compound = "CCCCCC(=O)N[C@@H](Cc1ccccc1)C(=O)O [Compound 21-Na, N--Caproyl-L-phenylalanine]"
readout_name = "Urinary excretions (%) Total (0-6 hr.)"
display_unit = "%"
measured_number = 19.9

[[record]]
compound = "CCCCCCCCCCCCCCCC(=O)N[C@@H](CC(=O)O)C(=O)O [Compound 27-Na, N--Palmitoyl-L-aspartic acid]"
readout_name = "Urinary excretions (%) Total (0-6 hr.)"
display_unit = "%"
measured_number = 26.8

[[record]]
compound = "CCCCCCCCCCCCCC(=O)N[C@H](C(=O)O)[C@@H](C)O [Compound 26-Na, N--Myristoyl-L-threonine]"
readout_name = "Urinary excretions (%) Total (0-6 hr.)"
display_unit = "%"
measured_number = 30.0

[[record]]
compound = "CCCCCCCCCC(=O)N[C@H](C(=O)O)C(C)C [Compound 24-Na, N--Caprinoyl-L-valine]"
readout_name = "Urinary excretions (%) Total (0-6 hr.)"
display_unit = "%"
measured_number = 23.1


====

The compounds listed here are annotated with their Urinary excretions (%) 0-2 hr..
- experiment: Urinary excretions of β-lactam antibiotics after rectal suppository (rabbit)
- Assay type: in vivo
- condition set: Cefmetazole 125 mg (potency), Compound (I) 5%, Witepsol H-15
readout name: Urinary excretions (%) 0-2 hr.

[[record]]
compound = "CCCCN(CCCC)C(=O)CCC(=O)O [Compound 15-Na, N,N--Di-(n-butyl)succinamic acid]"
readout_name = "Urinary excretions (%) 0-2 hr."
measured_number = 44.0

[[record]]
compound = "CCCCCCCCCC(=O)NCCC(=O)O [Compound 16-Na, N--(n-Caprinoyl)-β-alanine]"
readout_name = "Urinary excretions (%) 0-2 hr."
measured_number = 43.1

[[record]]
compound = "CCCCCCCCCCCC(=O)N[C@H](C(=O)O)C(C)C [Compound 25-Na, N--Lauroyl-L-valine]"
readout_name = "Urinary excretions (%) 0-2 hr."
measured_number = 45.0

[[record]]
compound = "CCCCOc1ccc(C(=O)O)cc1 [Compound 3-Na, p-Butoxybenzoic acid]"
readout_name = "Urinary excretions (%) 0-2 hr."
measured_number = 45.0

[[record]]
compound = "CCCCCCCC(=O)Nc1ccc(C(=O)O)cc1 [Compound 17-Na, N--(n-Caprylyl)-4-aminobenzoic acid]"
readout_name = "Urinary excretions (%) 0-2 hr."
measured_number = 45.0


====

The molecules listed here are annotated with their Urinary excretions (%) 4-6 hr..
- experiment: Urinary excretions of β-lactam antibiotics after rectal suppository (rabbit)
- Assay type: in vivo
- condition set: Cefmetazole 125 mg (potency), Compound (I) 5%, Witepsol H-15
- Procedure: The absorption into the circulation through the rectum of the rectal suppositories thus prepared was determined by measuring urinary excretion of the pharmacologically-active substance. Thus, Sarcina lutea and Bacillus subtilis were used as assay organisms for penicillins and cephalosporins, respectively, and the assays were performed by the paper disk method (cultivation at 37° C. for from 15 to 20 hours).
readout name: Urinary excretions (%) 4-6 hr.

[[record]]
molecule = "CCCCCCCCCC(=O)NCCC(=O)O [Compound 16-Na, N--(n-Caprinoyl)-β-alanine]"
readout_name = "Urinary excretions (%) 4-6 hr."
measured_number = 2.9

[[record]]
molecule = "CCCCOc1ccc(C(=O)O)cc1 [Compound 3-Na, p-Butoxybenzoic acid]"
readout_name = "Urinary excretions (%) 4-6 hr."
measured_number = 1.5

[[record]]
molecule = "CCCCCCCC(=O)Nc1ccc(C(=O)O)cc1 [Compound 17-Na, N--(n-Caprylyl)-4-aminobenzoic acid]"
readout_name = "Urinary excretions (%) 4-6 hr."
measured_number = 3.0

[[record]]
molecule = "CCCCCCCCCCCC(=O)N[C@H](C(=O)O)C(C)C [Compound 25-Na, N--Lauroyl-L-valine]"
readout_name = "Urinary excretions (%) 4-6 hr."
measured_number = 2.0

[[record]]
molecule = "CCCCN(CCCC)C(=O)CCC(=O)O [Compound 15-Na, N,N--Di-(n-butyl)succinamic acid]"
readout_name = "Urinary excretions (%) 4-6 hr."
measured_number = 1.0


====

- experiment: Urinary excretions of β-lactam antibiotics after rectal suppository (rabbit)
- Type: in vivo
- condition set: 6059-S 125 mg (potency), Compound (I) 5%, Witepsol H-15
readout name: Urinary excretions (%) 4-6 hr.

[[record]]
compound = "CCCC(=O)NC(C(=O)O)c1ccccc1 (racemic)"
measured_number = 2.0

[[record]]
compound = "CCCCOc1ccc(C(=O)N[C@@H](Cc2ccccc2)C(=O)O)cc1"
measured_number = 4.1

[[record]]
compound = "O=C(N[C@@H](Cc1ccccc1)C(=O)O)c1ccccc1O [Compound 19-Na, N--(2-Hydroxybenzoyl)phenylalanine]"
measured_number = 3.1

[[record]]
compound = "O=C(O)CCCCCCCCCCCCC(=O)O"
measured_number = 1.0

[[record]]
compound = "CCCCCCCC(=O)N(C)c1ccc(C(=O)O)cc1"
measured_number = 3.6


====

- experiment: Urinary excretions of AB-PC after administration of AB-PC rectal suppository (human)
- Assay type: in vivo
- condition set: AB-PC 125 mg (potency), Compound (I) 10%, Witepsol H-15, Table 3
- Method: The thus-obtained suppositories were administered to healthy adult male humans from the anus, and the urinary excretions of AB-PC were determined.
Exam item: assign 1 to entries whose Urinary excretions (%) 0-2 (hr.) is below 20% and 0 to entries at or above 20%. Note that a value of exactly 20% receives 0.

[[record]]
compound = "CCCCCCCC(=O)N[C@@H](Cc1ccccc1)C(=O)O [Compound 23-Na, N--Capryloyl-L-phenylalanine]"
label_class = 0

[[record]]
compound = "CCCCCCCCCCCCCCCC(=O)N[C@@H](CC(=O)O)C(=O)O [Compound 27-Na, N--Palmitoyl-L-aspartic acid]"
label_class = 0

[[record]]
compound = "CCCCCCCCCCCCCC(=O)N[C@H](C(=O)O)[C@@H](C)O [Compound 26-Na, N--Myristoyl-L-threonine]"
label_class = 0

[[record]]
compound = "CCCCCCCCCC(=O)N[C@H](C(=O)O)C(C)C [Compound 24-Na, N--Caprinoyl-L-valine]"
label_class = 1

[[record]]
compound = "CCCCCC(=O)N[C@@H](Cc1ccccc1)C(=O)O [Compound 21-Na, N--Caproyl-L-phenylalanine]"
label_class = 1

